Molecular target: CSNK2A2 (Homo sapiens)
Sequence (P19784 whole entry): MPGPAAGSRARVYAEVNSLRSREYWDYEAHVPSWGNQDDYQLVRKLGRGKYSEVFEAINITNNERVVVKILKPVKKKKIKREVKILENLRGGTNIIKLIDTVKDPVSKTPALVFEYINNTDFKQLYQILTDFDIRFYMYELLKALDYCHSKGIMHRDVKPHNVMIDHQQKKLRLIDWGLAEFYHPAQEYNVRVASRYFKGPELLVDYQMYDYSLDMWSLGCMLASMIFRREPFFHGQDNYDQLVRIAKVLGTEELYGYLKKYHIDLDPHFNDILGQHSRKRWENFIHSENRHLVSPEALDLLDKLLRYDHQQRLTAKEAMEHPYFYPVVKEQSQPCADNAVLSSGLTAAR
Experiment: NanoBRET in-cell target engagement in HEK293T cells: CSNK2A2
Type: cell-based
Parameters: full-length PKN3, CSNK2A1 or CSNK2A2 ORF; host or cells: HEK293T
Settings: CSNK2A2; replicate 2; read-out: NanoBRET Rep2
endpoint: IC50 (µM)

[
  {
    "molecule": "COc1cc(Nc2ncc3c(C)nc(-c4cc5ccccc5[nH]4)n3n2)cc(OC)c1OC [GW869516X]",
    "endpoint": "IC50",
    "observed result": 0.503
  }
]

###

Target: PKN3 (Homo sapiens, UniProt Q6P5Z2)
Sequence (Q6P5Z2 whole entry): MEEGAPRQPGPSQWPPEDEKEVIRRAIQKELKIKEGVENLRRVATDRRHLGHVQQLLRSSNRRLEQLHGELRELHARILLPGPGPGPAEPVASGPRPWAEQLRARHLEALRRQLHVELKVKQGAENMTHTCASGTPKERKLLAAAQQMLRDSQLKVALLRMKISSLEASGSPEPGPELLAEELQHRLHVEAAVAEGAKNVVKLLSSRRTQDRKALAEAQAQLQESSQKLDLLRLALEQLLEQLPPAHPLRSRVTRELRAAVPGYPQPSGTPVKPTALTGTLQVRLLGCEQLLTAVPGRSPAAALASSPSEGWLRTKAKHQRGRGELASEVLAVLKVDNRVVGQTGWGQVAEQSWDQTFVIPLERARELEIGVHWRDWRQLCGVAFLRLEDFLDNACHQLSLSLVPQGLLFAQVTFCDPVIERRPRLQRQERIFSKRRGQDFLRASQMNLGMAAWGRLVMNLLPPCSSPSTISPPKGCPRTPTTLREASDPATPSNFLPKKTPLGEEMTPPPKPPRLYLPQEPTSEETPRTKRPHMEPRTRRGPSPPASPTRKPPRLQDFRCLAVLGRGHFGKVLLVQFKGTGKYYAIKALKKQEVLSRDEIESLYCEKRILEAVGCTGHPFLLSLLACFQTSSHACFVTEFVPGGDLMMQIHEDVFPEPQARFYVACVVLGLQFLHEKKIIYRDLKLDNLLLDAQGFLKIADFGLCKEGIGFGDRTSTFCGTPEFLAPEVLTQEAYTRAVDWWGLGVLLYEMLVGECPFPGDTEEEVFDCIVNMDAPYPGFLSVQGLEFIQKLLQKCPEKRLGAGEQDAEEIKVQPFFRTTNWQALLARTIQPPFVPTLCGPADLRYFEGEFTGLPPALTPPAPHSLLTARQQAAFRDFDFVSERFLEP
Assay: Kinobeads full dose-response competition binding: PKN3;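 further: inhibitor pre-incubated 45 min at 4 °C in cell lysate (5 mg/ml protein), then competed against Kinobeads ε pulldown for 30 min, bound kinase quantified by nano LC–MS/MS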
Parameters: endogenous in cells
Conditions: Gene Name PKN3; EC50 with Correction, doses in nM; read-out: apparent Kd

[
  {
    "compound": "CCn1c(-c2nonc2N)nc2c(C#CC(C)(C)O)nc(OCCN)cc21 [GSK902056A]",
    "Kd": "10.2 nM"
  },
  {
    "compound": "NCc1ccc(-c2nc(-c3ccncc3)c(-c3ccc(Cl)c(O)c3)[nH]2)cc1 [SB-476429-A]",
    "Kd": "38.4 nM"
  },
  {
    "compound": "CCn1c(-c2nonc2N)nc2c(C#CC(C)(C)O)nc(OCCNC)cc21 [GSK949675A]",
    "Kd": "89.8 nM"
  }
]

All figures here come from paper PMC11062922.
